Attribute: solubility (g/100 g solution)
Assay: xn = mol fraction of the nth substance listed, in the solute-free solvent
Details: 288.15 K; x2 = 0.2307
observedProperty: solubility (g/100 g solution)

- CN1CCC(N(Cc2cccs2)c2ccccc2)CC1 + CCCO + O: 1.49
- CN1CCC(N(Cc2cccs2)c2ccccc2)CC1 + CC(C)O + O: 1.18
- Cc1ccc2cc(Br)ccc2n1 + CC(C)O + O: 0.586
- Nc1cccc2ccncc12 + CC(C)O + O: 0.559
- Nc1cccc2ccncc12 + CCCO + O: 0.711

----------
Test: xn = mol fraction of the nth substance listed, in the solute-free solvent
Conditions: 303.15 K; x2 = 0.4117
Quick rule: solubility (g/100 g solution) of at least 2 means True, below that means False.

* Nc1cccc2ccncc12 + CCCO + O | False
* CN1CCC(N(Cc2cccs2)c2ccccc2)CC1 + CC(C)O + O | True
* Cc1ccc2cc(Br)ccc2n1 + CC(C)O + O | False
* Nc1cccc2ccncc12 + CC(C)O + O | False
* CN1CCC(N(Cc2cccs2)c2ccccc2)CC1 + CCCO + O | True
